B1: glmS ribozyme (parent)
chain: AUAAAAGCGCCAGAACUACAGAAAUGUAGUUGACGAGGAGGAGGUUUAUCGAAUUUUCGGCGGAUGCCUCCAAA

Variants of: B1
Protocol: self-cleavage kobs at 2500 uM GlcN6P; higher = faster cleavage; RNA array
Applied Conditions: with glucosamine-6-phosphate
This sample holds only a part of the variants without activity.
Where self-cleavage kobs at 2500 uM GlcN6P equals or exceeds 0.0006 s⁻¹, the correct label is rule met; where it does not, the label is rule not met.

INPUT: Is the recorded value of self-cleavage kobs at 2500 uM GlcN6P equal to or greater than 0.0006 s⁻¹ for this variant? A14C A52U
OUTPUT: rule not met

INPUT: Could you please find out whether C8U G32C U47A has self-cleavage kobs at 2500 uM GlcN6P that meets 0.0006 s⁻¹ or exceeds it?
OUTPUT: rule not met

INPUT: Does G40C U47A U65G have a reported self-cleavage kobs at 2500 uM GlcN6P of at least 0.0006 s⁻¹?
OUTPUT: rule met

INPUT: # bool: self-cleavage kobs at 2500 uM GlcN6P of C11A A39C U49C >= 0.0006 s⁻¹
OUTPUT: rule not met

INPUT: In plain terms: is recorded self-cleavage kobs at 2500 uM GlcN6P at least 0.0006 s⁻¹ for G13C C34A G35U ?
OUTPUT: rule not met

INPUT: Please tell me: is the variant "U45G" at or over 0.0006 s⁻¹ in terms of self-cleavage kobs at 2500 uM GlcN6P?
OUTPUT: rule met

INPUT: Say whether A48U U54C shows self-cleavage kobs at 2500 uM GlcN6P of 0.0006 s⁻¹ or more.
OUTPUT: rule not met

INPUT: Would you say A33U G66A shows self-cleavage kobs at 2500 uM GlcN6P at minimum 0.0006 s⁻¹?
OUTPUT: rule not met

INPUT: Decide: self-cleavage kobs at 2500 uM GlcN6P of A36C U69C >= 0.0006 s⁻¹?
OUTPUT: rule not met

INPUT: Is self-cleavage kobs at 2500 uM GlcN6P for C8G U30A G40U at or above 0.0006 s⁻¹?
OUTPUT: rule not met

The values you see were collected from the supplement of paper PMC7125110.
